Test system: depolymerase from phage-infected E. amylovora NCPPB595
Experiment: Effect of chemical agents on depolymerase activity (galactose release from polysaccharide)
Assay type: biochemical, phage ERA103 / Erwinia amylovora NCPPB595
Details: agent 0.1 millimoles per liter; control assay without inhibitors
readout: Activity % Control (% Control)

compound="[N-]=[N+]=[N-] [Sodium azide]" readout="Activity % Control" units_label="% Control" readout_value=100
compound="OC(CS)C(O)CS (stereo not drawn) [Dithiothreitol, 1,4 dimercapto-2,3-butanediol]" readout="Activity % Control" units_label="% Control" readout_value=122
compound="OCCS [2-Mercaptoethanol]" readout="Activity % Control" units_label="% Control" readout_value=122
compound="O=C(O)c1cc[c]([Hg][Cl])cc1 [p-Chloromercuribenzoate]" readout="Activity % Control" units_label="% Control" readout_value=0
compound="O=C(O)CI [Iodoacetate]" readout="Activity % Control" units_label="% Control" readout_value=100
compound="CCN1C(=O)C=CC1=O [N--ethylmaleimide, N-ethylmaleimide]" readout="Activity % Control" units_label="% Control" readout_value=100

----------
Test system: depolymerase from phage-infected E. amylovora NCPPB595
Assay: Effect of chemical agents on depolymerase activity (galactose release from polysaccharide)
Type: biochemical, phage ERA103 / Erwinia amylovora NCPPB595
Conditions: agent 10.0 millimoles per liter; control assay without inhibitors
readout: Activity % Control (% Control)

molecule="CCN1C(=O)C=CC1=O [N--ethylmaleimide, N-ethylmaleimide]" study_system="depolymerase from phage-infected E. amylovora NCPPB595" readout_value=100
molecule="OC(CS)C(O)CS (stereo not drawn)" study_system="depolymerase from phage-infected E. amylovora NCPPB595" readout_value=258
molecule="O=C(O)c1cc[c]([Hg][Cl])cc1 [p-Chloromercuribenzoate]" study_system="depolymerase from phage-infected E. amylovora NCPPB595" readout_value=0
molecule="[N-]=[N+]=[N-] [Sodium azide]" study_system="depolymerase from phage-infected E. amylovora NCPPB595" readout_value=100
molecule="O=C(O)CI [Iodoacetate]" study_system="depolymerase from phage-infected E. amylovora NCPPB595" readout_value=100
molecule=OCCS study_system="depolymerase from phage-infected E. amylovora NCPPB595" readout_value=168

----------
Tested on: depolymerase from phage-infected E. amylovora NCPPB595
Test: Effect of chemical agents on depolymerase activity (galactose release from polysaccharide)
Type: biochemical, phage ERA103 / Erwinia amylovora NCPPB595
Details: Table 2
readout: Effect of agent on depolymerase activity (in words)

compound="Oc1cccc2cccnc12 [8-hydroxyquinoline]" study_system="depolymerase from phage-infected E. amylovora NCPPB595" readout_value=insensitive
compound="[N-]=[N+]=[N-] [Sodium azide]" study_system="depolymerase from phage-infected E. amylovora NCPPB595" readout_value=insensitive

----------
Test system: depolymerase from phage-infected E. amylovora NCPPB595
Assay: Effect of chemical agents on depolymerase activity (galactose release from polysaccharide)
Format: biochemical, phage ERA103 / Erwinia amylovora NCPPB595
Settings: agent 1.0 millimoles per liter; control assay without inhibitors
molecules and their reported Activity % Control
readout: Activity % Control (% Control)

molecule="O=C(O)CI [Iodoacetate]" readout="Activity % Control" units_label="% Control" readout_value=100
molecule="OC(CS)C(O)CS (stereo not drawn) [Dithiothreitol, 1,4 dimercapto-2,3-butanediol]" readout="Activity % Control" units_label="% Control" readout_value=138
molecule="O=C(O)c1cc[c]([Hg][Cl])cc1 [p-Chloromercuribenzoate]" readout="Activity % Control" units_label="% Control" readout_value=0
molecule="OCCS [2-Mercaptoethanol]" readout="Activity % Control" units_label="% Control" readout_value=155
molecule="[N-]=[N+]=[N-] [Sodium azide]" readout="Activity % Control" units_label="% Control" readout_value=100
molecule="CCN1C(=O)C=CC1=O [N--ethylmaleimide, N-ethylmaleimide]" readout="Activity % Control" units_label="% Control" readout_value=100
